tested on: Mycobacterium tuberculosis H37Rv (ATCC 27294); assay: Microplate Alamar Blue Assay (MABA) in BACTEC 12B medium (TAACF screen); assay type: cell-based; conditions: MABA, H37Rv, read-out: IC50
IC50 class ranges: lo: < 10 µg/mL; mid: ≥ 10 µg/mL and < 40 µg/mL; hi: ≥ 40 µg/mL

Hey, which category is CCCc1cc(=O)oc2c3c(c4c(c12)OC(C)(C)C=C4)OC(CNS(=O)(=O)c1ccc(NC(C)=O)cc1)CC3=O (centres unmarked) in, do you know?
mid

Hey, which category is CCCCC1C=Cc2c3c(c4oc(=O)c(Cl)c(CCC)c4c2O1)C(=O)CC(C)O3 (centres unmarked) in, do you know?
lo

Hey, which category is CCCCCC1CC(=O)c2c(cc(O)c3c(CCC)cc(=O)oc23)O1 (centres unmarked) in, do you know?
hi

Hey, which category is CC1CC(=O)c2c(c3c(c4c(CN5CCNCC5)cc(=O)oc24)OC(C)(C)C=C3)O1 (centres unmarked) in, do you know?
hi

Hey, which category is CC1CC(=O)c2c(c3c(c4c(-c5ccc(N)cc5)cc(=O)oc24)OC(C)(C)C=C3)O1 (centres unmarked) in, do you know?
mid

Hey, which category is CCCc1cc(=O)oc2cc3c(c(O)c12)C(=O)CC(CCC)O3 (centres unmarked) in, do you know?
lo

Hey, which category is Cc1cc(=O)oc2cc3c(c(O)c12)C(=O)CC(C)O3 (centres unmarked) in, do you know?
hi

Hey, which category is C/C=C/C1C=Cc2c3c(c4oc(=O)cc(CCC)c4c2O1)C(=O)CC(C)O3 (centres unmarked) in, do you know?
lo

Hey, which category is CCCc1c(F)c(=O)oc2c3c(c4c(c12)OC(CCC)C=C4)OC(C)CC3=O (centres unmarked) in, do you know?
hi

Hey, which category is CCCc1cc(=O)oc2c3c(cc(OS(=O)(=O)c4ccc(C)cc4)c12)OC(C)CC3=O (centres unmarked) in, do you know?
lo

Hey, which category is CCCc1cc(=O)oc2c3c(cc(O)c12)OC(c1ccccc1)CC3=O (centres unmarked) in, do you know?
mid

Hey, which category is CCCCc1cc(=O)oc2c3c(c4c(c12)OC(C)(C)C=C4)OC(C)CC3=O (centres unmarked) in, do you know?
mid

Hey, which category is CCCc1cc(=O)oc2c3c(cc(O)c12)OC(CCC)CC3=O (centres unmarked) in, do you know?
hi

Hey, which category is CCCc1cc(=O)oc2c3c(c4c(c12)OC(c1ccccc1N)C=C4)OC(C)CC3=O (centres unmarked) in, do you know?
lo

----------
tested on: Mycobacterium tuberculosis H37Rv (ATCC 27294); assay: Microplate Alamar Blue Assay (MABA) in BACTEC 12B medium (TAACF screen); assay type: cell-based; conditions: MABA, H37Rv, read-out: IC50
Please use Criterion met for IC50 under 30 µg/mL and Criterion not met for everything else, ties included.

I wonder whether CC1CC(=O)c2c(cc(O)c3c(CCC(F)(F)F)cc(=O)oc23)O1 (stereo not drawn) [Example 5a-71] has IC50 below 30 µg/mL. Can you tell?
Criterion met

I wonder whether CCCc1cc(=O)oc2cc3c(c(O)c12)C(=O)CC(c1ccccc1)O3 (stereo not drawn) [Example 5b-16] has IC50 below 30 µg/mL. Can you tell?
Criterion met

I wonder whether CCCc1cc(=O)oc2c3c(c4c(c12)OC(CCC)C=C4)OCC(C)C3=O (stereo not drawn) [Example 51] has IC50 below 30 µg/mL. Can you tell?
Criterion met

I wonder whether O=c1cc(CCC(F)(F)F)c2c(O)cc(O)cc2o1 [Example 6-71] has IC50 below 30 µg/mL. Can you tell?
Criterion met

I wonder whether CCCCC1C=Cc2c3c(c4oc(=O)c(F)c(CC)c4c2O1)C(=O)CC(C)O3 (stereo not drawn) [Example 40] has IC50 below 30 µg/mL. Can you tell?
Criterion met

I wonder whether CCCCc1cc(=O)oc2cc(O)cc(O)c12 [Example 6-36, 4-n-butyl-5,7-dihydroxy-coumarin] has IC50 below 30 µg/mL. Can you tell?
Criterion met

I wonder whether CCCc1c(F)c(=O)oc2c3c(c4c(c12)OC(C)C=C4)OC(C)CC3=O (stereo not drawn) [Example 84] has IC50 below 30 µg/mL. Can you tell?
Criterion met

I wonder whether CCc1c(F)c(=O)oc2c3c(c4c(c12)OC(c1ccccc1)C=C4)OC(C)CC3=O (stereo not drawn) [Example 42] has IC50 below 30 µg/mL. Can you tell?
Criterion met

I wonder whether CCCc1c(F)c(=O)oc2c3c(cc(O)c12)OC(C)CC3=O (stereo not drawn) [Example 5a-31] has IC50 below 30 µg/mL. Can you tell?
Criterion met

I wonder whether CCCc1cc(=O)oc2c1c(O)cc1occc(=O)c12 [Example 5a-13] has IC50 below 30 µg/mL. Can you tell?
Criterion not met

I wonder whether Cc1c(C)c2c3c(c4c(c2oc1=O)C(=O)CC(C)O4)C=CC(C)(C)O3 (stereo not drawn) [Example 2] has IC50 below 30 µg/mL. Can you tell?
Criterion met

I wonder whether CCCc1c(F)c(=O)oc2c3c(c4c(c12)OC(CC)C=C4)OC(C)CC3=O (stereo not drawn) [Example 56] has IC50 below 30 µg/mL. Can you tell?
Criterion not met

I wonder whether CCCc1cc(=O)oc2c3c(c4c(c12)OC(c1ccccc1)C=C4)OCC(C)C3=O (stereo not drawn) [Example 78] has IC50 below 30 µg/mL. Can you tell?
Criterion not met

I wonder whether CCCc1cc(=O)oc2cc3c(c(O)c12)C(=O)CC(C)O3 (stereo not drawn) [Example 5b-11] has IC50 below 30 µg/mL. Can you tell?
Criterion not met

I wonder whether CC1CC(=O)c2c(cc(O)c3c4c(c(=O)oc23)CCCC4)O1 (stereo not drawn) [Example 5a-27] has IC50 below 30 µg/mL. Can you tell?
Criterion not met

I wonder whether CCCc1c(Cl)c(=O)oc2c3c(c4c(c12)OC(CC)C=C4)OC(C)CC3=O (stereo not drawn) [Example 54] has IC50 below 30 µg/mL. Can you tell?
Criterion not met

I wonder whether CCCc1c(Cl)c(=O)oc2c3c(cc(O)c12)OC(C)CC3=O (stereo not drawn) [Example 5a-20] has IC50 below 30 µg/mL. Can you tell?
Criterion met

I wonder whether Cc1c(Cl)c(=O)oc2cc3c(c(O)c12)C(=O)CC(C)O3 (stereo not drawn) [Example 5b-3] has IC50 below 30 µg/mL. Can you tell?
Criterion not met
